Source of measurements: patent US20260217647A1

- System: Jurkat cells
- ASSAY SUMMARY: Growth-inhibiting activity on human leukemia T cell line Jurkat cells (viable cell counting reagent SF, 72 h)
- Format: cell-based
- CONDITION DESCRIPTION: Homo sapiens, Jurkat, 72 h, 72 h incubation, cell viability by absorbance A450-A630
pIC50: −log10 of the molar value.
READOUT: pIC50

Quote Jurkat cells pIC50 for entry "CSC/C=C(\C)CCC[C@H](C)CCC[C@H](C)CCCC(C)C" .
≤ 4.00
